molecular target: Biotinylated Human ACE2, His, Avitag protein (ACROBiosystems, AC2-H82E6) (human), Q9BYF1; experiment: SPR single cycle kinetics, ACE2 captured on CAP chip, peptide analyte; geometric mean
Sequence (Q9BYF1 18-740 limits assumed): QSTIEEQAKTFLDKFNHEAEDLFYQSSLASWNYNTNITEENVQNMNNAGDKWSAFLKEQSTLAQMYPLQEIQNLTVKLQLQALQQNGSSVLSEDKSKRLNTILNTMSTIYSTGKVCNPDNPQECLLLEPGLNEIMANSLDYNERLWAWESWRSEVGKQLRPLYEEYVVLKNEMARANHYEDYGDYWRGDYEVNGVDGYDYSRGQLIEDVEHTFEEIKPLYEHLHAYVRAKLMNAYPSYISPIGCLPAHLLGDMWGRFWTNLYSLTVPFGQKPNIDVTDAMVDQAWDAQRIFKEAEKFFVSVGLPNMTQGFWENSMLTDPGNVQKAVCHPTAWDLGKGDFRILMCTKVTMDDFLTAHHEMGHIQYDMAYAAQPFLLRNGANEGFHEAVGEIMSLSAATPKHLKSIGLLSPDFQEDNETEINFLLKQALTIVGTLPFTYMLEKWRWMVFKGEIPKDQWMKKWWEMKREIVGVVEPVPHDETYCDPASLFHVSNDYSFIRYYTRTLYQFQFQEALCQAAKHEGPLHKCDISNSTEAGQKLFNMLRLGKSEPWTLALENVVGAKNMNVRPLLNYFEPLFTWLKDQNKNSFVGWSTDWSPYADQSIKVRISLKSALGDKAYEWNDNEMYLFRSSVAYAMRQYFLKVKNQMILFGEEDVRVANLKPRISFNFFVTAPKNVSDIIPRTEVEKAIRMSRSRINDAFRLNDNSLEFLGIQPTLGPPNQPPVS
pKd: −log10 of the molar value. Numbered stars: 1 amine (or outer) side, 2 acyl side, 3 side chain; on linkers, the order of the positions; unused ones are H or OH. Bridge positions count the residues as written; N and C are the ends. Square brackets hold non-standard residues; d marks the D form. Primed or numbered codes have the meaning given here. Ends that are not written are not given here. Arg(Me)′ = delta-N-methyl arginine, CN(CCC[C@H](N[*:1])C(=O)[*:2])C(=N)N; TATA = O=C(CC[*:1])N1CN(C(=O)CC[*:2])CN(C(=O)CC[*:3])C1; 1Nal = N[C@@H](Cc1cccc2ccccc12)C(=O)O; hArg = N=C(N)NCCCC[C@H](N)C(=O)O; Aib = CC(C)(N)C(=O)O; Sar = CNCC(=O)O
Measured pKd accompanies every entry in the list below.
Measured quantity: pKd

{"Binder": "ACNAVLCSWARANSFCA[Sar][Sar][Sar][Sar][Sar][Sar]K(fluorescein) (linker 2-7-16 via TATA) [BCY15423]", "Value observed": 8.47}
{"Binder": "ACNAVLCSWA[hArg]ANSFCA[Sar][Sar][Sar][Sar][Sar][Sar]K(fluorescein) (linker 2-7-16 via TATA) [BCY16874]", "Value observed": 8.39}
{"Binder": "ACNAVLCSWA[Arg(Me)′]ANSFCA[Sar][Sar][Sar][Sar][Sar][Sar]K(fluorescein) (linker 2-7-16 via TATA) [BCY16863]", "Value observed": 8.46}
{"Binder": "ACAN[Aib]VLCSWARANSFCA[Sar][Sar][Sar][Sar][Sar][Sar]K(fluorescein) (linker 2-8-17 via TATA) [BCY16871]", "Value observed": 8.11}
{"Binder": "ACNAVLCS[1Nal]ARANSFCA[Sar][Sar][Sar][Sar][Sar][Sar]K(fluorescein) (linker 2-7-16 via TATA) [BCY16866]", "Value observed": 8.68}
{"Binder": "ACNAVLCSW[Aib]RANSFCA[Sar][Sar][Sar][Sar][Sar][Sar]K(fluorescein) (linker 2-7-16 via TATA) [BCY16872]", "Value observed": 8.05}
